- SYSTEM_NAME: Phospholipase A2, membrane associated (Homo sapiens, UniProt P14555)
- Sequence (P14555 whole entry): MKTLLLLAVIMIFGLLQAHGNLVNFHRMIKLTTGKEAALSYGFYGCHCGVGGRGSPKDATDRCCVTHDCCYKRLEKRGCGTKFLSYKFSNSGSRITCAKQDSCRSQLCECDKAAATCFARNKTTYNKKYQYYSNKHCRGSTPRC
- PROTOCOL_NOTES: Inhibition of human nonpancreatic secretory Phospholipase A2 through DOC/PC assay
Please respond with reported pIC50 for every item in the list.
To interpret pIC50, take it as minus log10 of a concentration measured in moles per litre.

Recorded pIC50 of CCc1c(C(=O)C(N)=O)c2c(OCC(=O)O)cccc2n1C(=O)c1ccccc1 , please.
7.41

// pIC50 lookup, key: Cc1c(C(=O)C(N)=O)c2c(OCC(=O)O)cccc2n1Cc1cccc(-c2ccccc2)c1
8.10

If you can, please state the reported pIC50 value of CCc1c(C(=O)C(N)=O)c2c(OC(CCc3ccccc3)C(=O)O)cccc2n1Cc1ccccc1 (stereo not given) .
7.59

If you can, please state the reported pIC50 value of CCc1c(C(=O)C(N)=O)c2c(OCC(=O)O)cccc2n1Cc1ccccc1Cc1ccccc1 .
8.40

Entry CCc1c(C(=O)C(N)=O)c2c(OC(C)C(=O)O)cccc2n1Cc1ccccc1 (stereo not given) : reported pIC50 = ?
7.89

----------
- SYSTEM_NAME: UniProt P14555
- PROTOCOL_NOTES: Inhibition of human nonpancreatic secretory Phospholipase A2 through chromogenic assay
READOUT: IC50 (nM)
Unit nM implied. Number only.

What value of IC50 has been recorded for this entry: CCc1c(C(=O)C(N)=O)c2c(OCC(=O)O)cccc2n1C(=O)c1ccccc1
81

Consider the compound CCc1c(C(=O)C(N)=O)c2c(OC(C)(C)C(=O)O)cccc2n1Cc1ccccc1 and give its measured IC50.
25

Fill in the blank: the reported IC50 of C=CCc1ccc2c(c1OCC(=O)O)c(C(=O)C(N)=O)c(CC)n2Cc1ccccc1 is ____.
1620

What value of IC50 has been recorded for this entry: NC(=O)C(=O)c1c(C2CC2)n(Cc2ccccc2-c2ccccc2)c2cccc(OCC(=O)O)c12
6

Query (compound): CCc1c(C(=O)C(N)=O)c2c(OCC(=O)O)cccc2n1Cc1ccccc1Cc1ccccc1 ; field requested: IC50
4

// lookup IC50 for CCc1c(C(=O)C(N)=O)c2c(OC(CCc3ccccc3)C(=O)O)cccc2n1Cc1ccccc1 (stereo not drawn)
46

# lookup: IC50 of Cc1c(C(=O)C(N)=O)c2c(O[C@@H](C)C(=O)O)cccc2n1Cc1ccccc1
188

----------
For each of the compounds below, state its IC50.
- SYSTEM_NAME: Phospholipase A2 (Homo sapiens, UniProt P04054)
- Sequence (P04054 whole entry): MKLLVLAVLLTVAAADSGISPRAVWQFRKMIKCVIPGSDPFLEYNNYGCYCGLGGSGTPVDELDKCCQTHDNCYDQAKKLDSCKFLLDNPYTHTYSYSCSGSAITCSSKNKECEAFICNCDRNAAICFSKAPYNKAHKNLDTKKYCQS
- PROTOCOL_NOTES: Compound was tested for inhibition of human secretory pancreatic Phospholipase A2
Give the value in nM but do not write nM after it.

Fill in: IC50 of CCc1c(C(=O)C(N)=O)c2c(OCC(=O)O)cccc2n1Cc1ccccc1Cc1ccccc1 is ___
62

Need IC50 of Cc1c(C(=O)C(N)=O)c2c(OCC(=O)O)cccc2n1Cc1ccc(-c2ccccc2)cc1 , thanks.
1090

Consider the compound shown here: Cc1c(C(=O)C(N)=O)c2c(OCC(=O)O)cccc2n1Cc1ccccc1-c1ccccc1 What is its recorded IC50?
364

For the compound shown here, Cc1c(C(=O)C(N)=O)c2c(OCC(=O)O)cccc2n1Cc1cccc2ccccc12 , give the reported IC50.
1200

# lookup: IC50 of Cc1c(C(=O)C(N)=O)c2c(OCC(=O)O)cccc2n1Cc1ccccc1
761

What IC50 value was documented for this compound, Cc1c(C(=O)C(N)=O)c2c(OCC(=O)O)cccc2n1Cc1cccc(-c2ccccc2)c1 ?
570
